Every entry's value here was drawn from paper PMC12040169.

Assay: in vitro
Details: human, hela cells, % viability
Test Readout: viability at 28.5 h, 10 µM (%)
I only need the number, in %, no unit after it.

Some solved entries appear below for comparison.
| Compound | Units Text | viability at 28.5 h, 10 µM |
| --- | --- | --- |
| O=C1c2ccccc2C(=O)N1CCc1nnn[nH]1 | % | 111 |
| COc1ccc(OCc2nc3ccccc3n2C(C)c2ccccc2)cc1 (centres unmarked) | % | 116 |

Returns the measured viability at 28.5 h, 10 µM for the input compound. Input: `O=C(Nc1ccc(S(=O)(=O)N2CCOCC2)cc1)c1ccc(CN2CCc3ccccc3C2)cc1`
96.2

Moving on to `CCCCC(=O)Nc1ccc(S(N)(=O)=O)cc1`
113

Moving on to CC(=O)Nc1ccc(NC2SC(=O)N(c3ccccc3)C2=O)cc1 (centres unmarked)
88.4

---

Assay: in vitro
Details: human, hela cells, % viability
Test Readout: viability at 28.5 h, 10 µM (%)
I only need the number, in %, no unit after it.

Some solved entries appear below for comparison.
| Smiles Structure | viability at 28.5 h, 10 µM [%] |
| --- | --- |
| Cc1cc(=O)oc2cc(SCc3ccc(SC(F)(F)F)cc3)ccc12 | 97.6 |
| CS(=O)(=O)N1CCC(Nc2nc(-c3cccs3)nc3ccccc23)CC1 | 87.3 |
| Cc1cc(NC(=O)c2ccco2)nc2c1c(=O)oc1ccccc12 | 110 |

Returns the measured viability at 28.5 h, 10 µM for the input compound. Input: `CC1(C)Cc2cccc(OCC(=O)O)c2O1`
100

Moving on to `Cc1cccc(Nc2ncnc3ccccc23)c1`
114

---

Assay: in vitro
Parameters: Viability of infected HeLa host cells, resazurin conversion, bulk resorufin fluorescence relative to DMSO
Conditions: human, hela cells; bulk resorufin, mean of 2
Entries annotated with measured viability at 28.5 h, 5 µM
I only need the number, in %, no unit after it.

| Compound | viability at 28.5 h, 5 µM [%] |
| --- | --- |
| O=C(Nc1ccccc1N1CCCNCC1)c1ccc2ccccc2c1 [CBK038927T] | 114 |
| CC(=O)NC[C@H]1CN(c2ccc3c(c2)CCN(C(=O)Oc2ccccc2)CC3)C(=O)O1 | 94.2 |
| CC(Nc1cc(N2CCN(CCO)CC2)ccc1[N+](=O)[O-])c1ccc(Br)cc1 (stereo not drawn) | 94.5 |
| CCOC(=O)c1c(C)n(-c2ccc(C)cc2)c2ccc(O)c(CN(C)C)c12 [CBK263499C] | 93.4 |
| COc1ccc([C@@]23CC[C@@H](NC(=O)c4ccc(-c5ccccc5)cc4)CC2N(C)CC3)cc1OC (stereo partly drawn) [CBK074973T] | 94.3 |
| Cc1cccc(Nc2nc(C)cc3n[nH]c(=O)n23)c1 | 104 |
| O=C(NCCNCCNC(=O)C1(c2ccccc2)CCCC1)C1(c2ccccc2)CCCC1 | 93.5 |
| COc1ccc(N2CCN(C(=O)c3ccc([N+](=O)[O-])o3)CC2)cc1 | 110 |

Returns the measured viability at 28.5 h, 5 µM for the input compound. Input: c1c(C2CC2)[nH]c2nc(N3CCCC3)nc(N3CCCC3)c12 [CBK016707G]
96.9

Moving on to N=C(N)SCc1csc(-c2ccc(Br)cc2)n1 [CBK017064C]
88.9

Moving on to CC(N)C(=O)NC1CCN(c2nc3c(cc2F)c(=O)c(C(=O)O)cn3C23CC(C2)C3)C1 (stereo not drawn)
89.5

Moving on to `Nc1nc(F)nc2c1ncn2[C@H]1C[C@@H](O)[C@@H](CO)O1`
79.2

Moving on to O=C(OCCC1SC(NC2CC3C=CC2C3)=NC1=O)c1ccc(Cl)c([N+](=O)[O-])c1 (stereo not drawn) [CBK200060T]
96.8

Moving on to `O=C(c1ccc(-c2ccc(F)cc2)o1)N1C[C@H]2CC[C@](O)(c3ccc(F)cc3)[C@H]2C1`
86.5

Moving on to CN(C(=O)c1ccc(Cl)c(Cl)c1)[C@H]1CCC[C@H]1N1CCCC1 [CBK003411C]
111

Moving on to O=C(NS(=O)(=O)c1cccc(-c2nnco2)c1)C1CC1C1CCCCC1 (stereo not drawn)
99.4

Moving on to CCc1cc(Br)ccc1S(=O)(=O)NC(CC)COC (stereo not drawn)
99

Moving on to O=C(O)c1cn(C2CC2)c2cc(N3CCN(C(=O)C4CCCO4)CC3)c(F)cc2c1=O (stereo not drawn)
94.9

---

Tested on: C. trachomatis L2/434/Bu expressing GFP (CTL2-GFP)
Construct: L2/434/Bu GFP intracellular growth in HeLa cells
Assay: microbe, parasite or virus in culture
Parameters: C. trachomatis total inclusion area by high-content imaging, normalised to DMSO
Conditions: Chlamydia trachomatis, HeLa, 28.5 h; total inclusion area; read-out: % of control remaining
Test Readout: activity at 1 µM (%)
I only need the number, in %, no unit after it.

Some solved entries appear below for comparison.
| Molecule | Test Readout | Readout Value |
| --- | --- | --- |
| FC(F)(F)CCN1CCC2(CC1)NCCc1c2[nH]c2ccc(Cl)cc12 | activity at 1 µM | 56.9 |
| Nc1nc(F)nc2c1ncn2[C@H]1C[C@@H](O)[C@@H](CO)O1 | activity at 1 µM | 50.4 |

// next entry
Missing value: activity at 1 µM, C. trachomatis L2/434/Bu expressing GFP (CTL2-GFP), entry `CCNC(=O)N1CC2(CCN(Cc3nc4ccccc4[nH]3)CC2)c2ccccc21` . Fill in?
74.5

---

Assay: in vitro
Conditions: human, hela cells, % viability
Entries annotated with measured viability at 28.5 h, 10 µM
I only need the number, in %, no unit after it.

| Molecule | Units Text | viability at 28.5 h, 10 µM |
| --- | --- | --- |
| O=C(NC1CC2(CCCC2)Oc2ccccc21)C1CCCO1 (centres unmarked) [CBK282420] | % | 110 |
| O=C(O)CCNS(=O)(=O)c1cccc(Cl)c1 [CBK267328] | % | 106 |

Returns the measured viability at 28.5 h, 10 µM for the input molecule. Input: O=C(c1nccs1)C1CCN(C(=O)C2(c3ccccc3)CC2)CC1 [CBK284206]
97.4

Moving on to c1csc(-c2cnc3ccccc3n2)c1 [CBK020525]
93.2

---

Assay: in vitro
Parameters: Viability of infected HeLa host cells, resazurin conversion, bulk resorufin fluorescence relative to DMSO
Conditions: human, hela cells; bulk resorufin, mean of 3
Please note: viability at 28.5 h, 0.037 µM exactly at 90% is Condition not met. Only values below 90% get Condition met.

| Compound | Label Value |
| --- | --- |
| COc1ccc([C@@H]2CN(C)C[C@H]2NC(=O)Nc2ccc(Cl)c(Cl)c2)cc1OC [c39e] | Condition not met |
| C1=C(CCNCCc2ccccc2)c2ccccc2C12CCCC2 [c51e] | Condition not met |
| COCC(=O)N[C@H]1C[C@H]2C(=O)Nc3ccc(/C=C/c4ccccc4)cc3C(=O)N2C1 [c25e] | Condition not met |
| O=C(NCCCn1ccnc1)c1cc(-c2cccc(Br)c2)nc2ccccc12 [c50e] | Condition met |
| O=[N+]([O-])c1ccc2[nH]c3c(c2c1)CCCC3NC1CCN(CCc2ccccc2)CC1 (stereo not drawn) [c23e] | Condition met |

hey, is viability at 28.5 h, 0.037 µM for CN(C)c1ccc(Nc2nc(NCCO)c3ccccc3n2)cc1 [c27e] lower than 90% or not?
Condition not met

Moving on to Cc1cccc(OCC(C)NC(=O)NCCc2cnn(C)c2)c1 (stereo not drawn) [c47e]
Condition not met

Moving on to `O=C(N/N=C\c1ccc([N+](=O)[O-])o1)c1nc(-c2ccccc2)cc(-c2ccccc2)n1`
Condition met

---

Experiment: in vitro
Conditions: human, hela cells, % viability
Test Readout: viability at 28.5 h, 10 µM (%)
I only need the number, in %, no unit after it.

Some solved entries appear below for comparison.
| Compound | Test Readout | Readout Value |
| --- | --- | --- |
| COc1ccc(C(O)Cn2c(=N)n(CCN3CCCCC3)c3ccccc32)cc1 (stereo not drawn) [CBK262930C] | viability at 28.5 h, 10 µM | 98.8 |
| Fc1ccc(C2=Nn3cnnc3SC2)c(F)c1 [CBK288078] | viability at 28.5 h, 10 µM | 97 |
| O=C(c1csnn1)N1CCN(CCc2ccccc2)CC1 [CBK200228] | viability at 28.5 h, 10 µM | 96.6 |
| O=C(CCn1ccc2ccc(F)cc21)NC[C@H]1CC[C@H](C(=O)O)CC1 [CBK286666] | viability at 28.5 h, 10 µM | 86.2 |
| CCCn1cnc2cc(NC(=O)Cn3cc(C(=O)NC4CCCCC4)ccc3=O)ccc21 [CBK286098] | viability at 28.5 h, 10 µM | 96.6 |

Returns the measured viability at 28.5 h, 10 µM for the input compound. Input: O=C(NC[C@H]1O[C@@H](CC(=O)N2CCN(c3ccc(F)cc3)CC2)[C@H](O)[C@@H]1O)c1ccco1 [CBK288922]
95.4

Moving on to O=C(Cn1nc(C(F)(F)F)c2c1CCC2)N1CCN(Cc2ccccc2)CC1 [CBK266113]
109

Moving on to COc1cccc(CN2C(=O)CC3(C2=O)C(=O)N(Cc2ccc4ccccc4n2)c2ccccc23)c1 (stereo not drawn) [CBK076016]
96.2

Moving on to NC(=O)CC[C@H](N)C(=O)N1CC[C@@H]2NC(=O)[C@H](Cc3ccccc3)NC(=O)C3(C/C=C/C[C@@H]2C1)CCOCC3 [CBK292199]
109

Moving on to Cc1ccc(NC(=O)C2CC=CCC2C(=O)O)cc1NC(=O)c1ccc(Cl)cc1 (stereo not drawn) [CBK268980]
92.6

Moving on to O=C(N/N=C/c1ccc(O)cc1O)c1[nH]c2ccc([N+](=O)[O-])cc2c1-c1ccccc1 [CBK263328]
69.7

Moving on to NC(=O)CN1CCCN(c2ccnc(OCC3COc4ccccc4O3)n2)CC1 (stereo not drawn) [CBK083236T]
91.4

Moving on to COc1ccc(-c2cc3n[nH]c(=O)n3c(C)n2)cc1 [CBK288439]
91.1

Moving on to COc1ccc(OC)c(NC(=O)c2c[nH]c(=O)n(-c3ccc(F)cc3)c2=O)c1 [CBK287552]
99

Moving on to O=C(NCc1ccccc1)c1ccc(N2C(=O)CSC23C(=O)Nc2ccccc23)cc1 (stereo not drawn) [CBK093476]
109

Moving on to CN(CCCN1CCC(C(=O)NC(c2cccnc2)c2ccc3c(c2)OCO3)CC1)S(C)(=O)=O (stereo not drawn) [CBK148505]
93.1

Moving on to Cc1nccn1CC1(O)CCN(Cc2ccc(F)c(F)c2)CC1 [CBK284955]
117

Moving on to COc1ccc(C(=O)Nc2ccccc2Nc2cc(-c3ccccc3)nn2-c2ccccc2)cc1 [CBK261296]
88.4

Moving on to CCn1c(CN2CCCC2c2noc(C)n2)nc2cc(F)ccc21 (stereo not drawn) [CBK305250]
55.9

Moving on to COC1CCN(S(=O)(=O)c2cc(-n3cccn3)ccc2C)C1 (stereo not drawn) [CBK306757]
92.8

Moving on to Cc1ccc(-c2nc3ccccc3[nH]2)cc1 [CBK085933]
89.9

Moving on to C=CCn1c(SCC(=O)Nc2cc(Cl)ccc2C)nnc1-c1ccccc1O [CBK266867]
94.5

Moving on to O=C(O)C1CCN(c2c(-c3ccccc3)c3cc(Cl)ccc3[nH]c2=O)CC1 [CBK287198]
87.3
